Where these numbers come from: patent US8445636B2

Assay: in vitro
Type: in vitro ADME, porcine
Settings: pig, isolated enzyme pepsin, pH 7.3
Positions of bridges follow the written chain, without caps; N, C: chain ends. Non-standard residues stand in square brackets, D forms with d. Residues, ends and D or L forms follow the SMILES beside them. *: point of attachment. Myristoyl = CCCCCCCCCCCCCC(=O)*
Metric name: metabolised at 0.5 h, 140 μM (%)

compound="CCCCCCCCCCCCCC(=O)N[C@H]1CSSC[C@@H](C(N)=O)NC(=O)[C@H](CCCCN)NC(=O)CNC(=O)CNC(=O)[C@H](CCCCN)NC(=O)CNC(=O)CNC(=O)CNC(=O)[C@H](CCCCN)NC(=O)CNC(=O)CNC(=O)CNC(=O)[C@H](CCCCN)NC1=O [lipopeptide 19] (Myristoyl-CKGGGKGGGKGGKC-NH2; disulfide 1-14)" metric_name="metabolised at 0.5 h, 140 μM" reading=100
compound="CCCCCCCCCCCCCC(=O)N[C@H]1CSSC[C@@H](C(N)=O)NC(=O)[C@@H](CCCCN)NC(=O)CNC(=O)CNC(=O)[C@@H](CCCCN)NC(=O)CNC(=O)CNC(=O)CNC(=O)[C@@H](CCCCN)NC(=O)CNC(=O)CNC(=O)CNC(=O)[C@@H](CCCCN)NC1=O [lipopeptide 16] (Myristoyl-C[dK]GGG[dK]GGG[dK]GG[dK]C-NH2; disulfide 1-14)" metric_name="metabolised at 0.5 h, 140 μM" reading=0
